The origin of these recorded values is ChEMBL document CHEMBL1140082.

Could you please report measured log10 of Ki for the items listed next?
Field: value | Transform: log10 | Quantity: Ki | Unit: µM

Specify log10 of Ki for COc1cc2nccc(Oc3ccc(-c4ccc(Cc5ccccc5)nn4)cc3F)c2cc1OC , system UniProt P08581.
-0.70

Specify log10 of Ki for COc1cc2c(Oc3ccc(-c4cnc(Cc5ccc(F)cc5)n(C)c4=O)cc3F)ccnc2cc1OCCCN1CCOCC1 , system UniProt P08581.
-1.77

Specify log10 of Ki for COc1cc2nccc(Oc3ccc(-c4cnc(C(N)c5ccccc5)n(C)c4=O)cc3F)c2cc1OC (stereo not given) , system UniProt P08581.
-1.14

Specify log10 of Ki for COc1cc2c(Oc3ccc(-c4cnc(Nc5ccc(F)cc5)n(C)c4=O)cc3F)ccnc2cc1OCCCN1CCOCC1 , system UniProt P08581.
-2.31

Specify log10 of Ki for COc1cc2nccc(Oc3ccc4cc(NC(=O)Cc5ccccc5)ccc4c3)c2cc1OC , system UniProt P08581.
-1.05
